Would you kindly list furin cleavage Z-score for each of these sequences?
testedSystem: furin, P09958;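 further: purified furin at 1:10 enzyme:substrate in 50 mM HEPES pH 7.5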
Sequence (P09958 whole entry): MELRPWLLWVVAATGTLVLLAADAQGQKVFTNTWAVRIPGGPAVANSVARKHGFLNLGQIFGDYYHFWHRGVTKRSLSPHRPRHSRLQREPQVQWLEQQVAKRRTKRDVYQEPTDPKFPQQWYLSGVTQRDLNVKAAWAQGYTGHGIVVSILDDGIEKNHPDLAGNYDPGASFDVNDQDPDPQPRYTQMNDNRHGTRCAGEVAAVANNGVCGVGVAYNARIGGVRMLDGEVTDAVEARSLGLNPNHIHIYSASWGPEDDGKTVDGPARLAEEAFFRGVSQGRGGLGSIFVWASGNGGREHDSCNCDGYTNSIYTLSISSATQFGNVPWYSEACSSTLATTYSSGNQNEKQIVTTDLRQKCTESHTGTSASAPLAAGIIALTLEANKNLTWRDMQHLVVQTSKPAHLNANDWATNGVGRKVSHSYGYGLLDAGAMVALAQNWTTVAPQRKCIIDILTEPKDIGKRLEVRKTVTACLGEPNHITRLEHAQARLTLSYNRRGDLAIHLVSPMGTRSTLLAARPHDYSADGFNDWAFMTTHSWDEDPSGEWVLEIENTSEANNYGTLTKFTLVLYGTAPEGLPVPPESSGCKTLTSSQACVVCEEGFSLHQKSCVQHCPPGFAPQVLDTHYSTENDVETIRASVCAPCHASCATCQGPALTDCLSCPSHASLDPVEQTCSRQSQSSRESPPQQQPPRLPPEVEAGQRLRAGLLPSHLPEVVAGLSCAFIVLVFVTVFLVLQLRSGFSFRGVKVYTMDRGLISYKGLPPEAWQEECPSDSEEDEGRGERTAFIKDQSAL
assayComment: furin cleavage Z-score vs untreated control; higher = more cleavage, active = 3.5 or more, inactive = 1 or less, 8 variable residues between constant flanks
conditionSummary: 7.5 min
The list shows a part of the results. No count for the full screen is at hand.

Lookup: Give a short answer stating reported furin cleavage Z-score for CAEVVTSTWPAGNASASA [HC2259] .
Found: -1.41 (inactive)

Lookup: Give reported furin cleavage Z-score value for CAEVYCHRPSAGNASASA [HC2349]
Found: -0.918 (inactive)

Lookup: Output measured furin cleavage Z-score for this item: CAVWARPDYNAGNASASA [HC1304]
Found: 0.568 (inactive)

Lookup: Name the recorded furin cleavage Z-score of the sequence listed here: CAQTPCSAHLAGNASASA [HC2482]
Found: -0.0432 (inactive)
